SYSTEM_NAME: purified HLA DRB4*0101 (Homo sapiens, UniProt P01903+P13762, G164S)
Construct: purified from EBV transformed homozygous cell lines or single MHC allele transfected 721.221, C1R, or fibroblast lines; made in house
TEST: HLA-DR radioligand binding inhibition assay, DRB4*0101
RUN_PARAMETERS: IC50 nM purified HLA DRB4 *0101, purified HLA DRB4*0101
MEASURED_PARAMETER: log10 of IC50 (log10 of the value in nM)
log10 IC50, nM

COMPOUND	RESULT_VALUE
CC[C@H](C)[C@H](NC(=O)CNC(=O)[C@H](CC(C)C)NC(=O)CNC(=O)[C@H](CCC(N)=O)NC(=O)[C@H](CC(C)C)NC(=O)[C@@H](NC(=O)[C@H](CC(C)C)NC(=O)[C@@H](N)CO)[C@@H](C)O)C(=O)N[C@@H](CO)C(=O)N[C@@H](Cc1c[nH]c2ccccc12)C(=O)N[C@@H](CC(C)C)C(=O)NCC(=O)N[C@@H](CC(C)C)C(=O)N[C@@H](CCCNC(=N)N)C(=O)O [Peptide 9019.0055]	1.34
CSCC[C@H](NC(=O)[C@H](CCC(N)=O)NC(=O)[C@H](CC(C)C)NC(=O)[C@H](CC(C)C)NC(=O)[C@H](CCC(=O)O)NC(=O)[C@H](CCC(=O)O)NC(=O)[C@@H]1CCCN1)C(=O)N[C@@H](CCC(=O)O)C(=O)N[C@@H](CC(C)C)C(=O)N[C@@H](CC(C)C)C(=O)N[C@@H](CC(C)C)C(=O)N[C@H](C(=O)N[C@@H](CC(N)=O)C(=O)N[C@@H](CCCCN)C(=O)N[C@@H](CC(C)C)C(=O)O)C(C)C [Peptide 9019.0161]	1.04
CSCC[C@H](NC(=O)[C@@H](NC(=O)[C@H](Cc1ccc(O)cc1)NC(=O)[C@H](C)N)C(C)C)C(=O)N[C@@H](C)C(=O)NCC(=O)N[C@H](C(=O)NCC(=O)N[C@@H](CO)C(=O)N1CCC[C@H]1C(=O)N[C@@H](Cc1ccc(O)cc1)C(=O)N[C@H](C(=O)N[C@@H](CO)C(=O)N[C@@H](CCCNC(=N)N)C(=O)N[C@@H](CC(C)C)C(=O)O)C(C)C)C(C)C [Peptide 9019.0077]	3.70
CC[C@H](C)[C@H](NC(=O)CNC(=O)[C@@H](NC(=O)[C@@H](NC(=O)[C@H](C)NC(=O)[C@H](CO)NC(=O)[C@@H](NC(=O)[C@@H](NC(=O)[C@H](CO)NC(=O)[C@@H](NC(=O)[C@H](CC(C)C)NC(=O)[C@@H]1CCCN1C(=O)[C@H](CO)NC(=O)[C@H](C)N)[C@@H](C)O)[C@@H](C)CC)[C@@H](C)CC)C(C)C)C(C)C)C(=O)N[C@@H](CC(C)C)C(=O)O [Peptide 9019.0066]	3.18
CC[C@H](C)[C@H](N)C(=O)N[C@@H](CC(N)=O)C(=O)NCC(=O)N[C@H](C(=O)N1CCC[C@H]1C(=O)N[C@@H](CCC(N)=O)C(=O)N[C@@H](CCC(N)=O)C(=O)N[C@@H](Cc1c[nH]cn1)C(=O)N[C@H](C(=O)N[C@@H](CCC(N)=O)C(=O)N[C@H](C(=O)N[C@@H](CC(C)C)C(=O)N[C@@H](Cc1ccccc1)C(=O)N[C@H](C(=O)N[C@@H](C)C(=O)O)[C@@H](C)CC)C(C)C)[C@@H](C)O)[C@@H](C)CC [Peptide 9019.0139]	3.43

Exercise: Fetch value of log10 of IC50 on purified HLA DRB4*0101 (Homo sapiens, UniProt P01903+P13762, G164S) for CSCC[C@H](NC(=O)CNC(=O)[C@H](CC(C)C)NC(=O)CNC(=O)[C@H](Cc1ccc(O)cc1)NC(=O)[C@@H](N)CS)C(=O)N[C@@H](CCC(=O)O)C(=O)N[C@@H](Cc1c[nH]cn1)C(=O)N[C@@H](CC(C)C)C(=O)N[C@@H](CCCNC(=N)N)C(=O)N[C@@H](CCC(=O)O)C(=O)N[C@H](C(=O)N[C@@H](CCCNC(=N)N)C(=O)N[C@@H](C)C(=O)N[C@H](C(=O)O)C(C)C)C(C)C [Peptide 9019.0044] .
Solution: 2.65
